Measured protein stability index, listed per entry for reference.
B1: CAMK2D (parent)
chain: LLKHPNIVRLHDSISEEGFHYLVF

Variants of: B1
Experiment: protein stability index of a GFP-peptide fusion (GPS, HEK-293T) (PSI 1-6); higher = more stable;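 note: lentivirally expressed fusions sorted by FACS into six bins by GFP to DsRed ratio, PSI derived from sequencing read proportions per bin multiplied by bin number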
Details: c terminus: a fixed tail appended
# respond with the number and nothing more

The following variants have reported results that may help.
* S15T | 1.3
* R9S | 2.58
* N6C | 2.13

// lookup protein stability index for `V8A` 2.64

And for `V8P` ? 2.01

What would you report for `P5C` ? 2.29
